System: Saccharomyces cerevisiae BY4741 SeMeCo community
Assay: z-score of subpopulation abundance vs DMSO median, subpopulation auxotrophic for U; higher = larger share of this subpopulation than in DMSO controls
Conditions: 10 µM; 24 h; SM minimal medium; subpopulation (auxotrophy): U
Where a name gives a salt, the structure may show the parent alone.
parameter.measured: z-score of subpopulation abundance

{"molecule": "CC[C@H](C)C(=O)O[C@H]1C[C@H](O)C=C2C=C[C@H](C)[C@H](CC[C@@H](O)C[C@@H](O)CC(=O)O)[C@H]21 [Pravastatin sodium]", "experimental.result": -0.09}
{"molecule": "O=C1CCc2ccc(OCCCCN3CCN(c4cccc(Cl)c4Cl)CC3)cc2N1", "experimental.result": 0.55}
{"molecule": "CN(Cc1ccc(C(C)(C)C)cc1)Cc1cccc2ccccc12 [Butenafine HCl]", "experimental.result": -1.08}
{"molecule": "N=C(N)NC(=O)c1nc(Cl)c(N)nc1N [Amiloride HCl dihydrate]", "experimental.result": -3.02}
{"molecule": "Cc1ccc(-c2ncc(Cl)cc2-c2ccc(S(C)(=O)=O)cc2)cn1", "experimental.result": -0.32}
{"molecule": "C[N+]1(C)[C@@H]2CC[C@H]1C[C@@H](OC(=O)C(O)c1ccccc1)C2 (some centres not stated) [Homatropine Methylbromide]", "experimental.result": 0.46}
{"molecule": "CCC(=O)c1c(O)cc(O)cc1O", "experimental.result": -0.13}
{"molecule": "C#C[C@]1(O)CC[C@H]2[C@@H]3CCC4=Cc5oncc5C[C@]4(C)[C@H]3CC[C@@]21C", "experimental.result": 0.53}
{"molecule": "C=C1c2cccc(O)c2C(O)=C2C(=O)[C@]3(O)C(O)=C(C(N)=O)C(=O)[C@@H](N(C)C)[C@@H]3[C@@H](O)[C@H]12 [Methacycline HCl]", "experimental.result": -0.83}
{"molecule": "C#C[C@]1(O)CC[C@H]2[C@@H]3CCC4=CC(=O)CC[C@@H]4[C@H]3C(=C)C[C@@]21CC", "experimental.result": 1.19}
{"molecule": "CCC[S+]([O-])c1ccc2[nH]c(NC(=O)OC)nc2c1 (configuration not stated) [Albendazole Oxide]", "experimental.result": 0.49}
{"molecule": "Oc1ccc(C2CNCCc3c2cc(O)c(O)c3Cl)cc1 (configuration not stated) [Fenoldopam mesylate]", "experimental.result": -1.92}
{"molecule": "C[C@H]1COc2c(N3CCN(C)CC3)c(F)cc3c(=O)c(C(=O)O)cn1c23 [Levofloxacin hydrate]", "experimental.result": 0.27}
{"molecule": "CN(C)CC/C=C1/c2ccccc2Sc2ccc(Cl)cc21", "experimental.result": 0.62}
{"molecule": "CCOC(=O)c1ccc(N)cc1 [Benzocaine hydrochloride]", "experimental.result": 1.42}
{"molecule": "C#C[C@]1(O)CC[C@H]2[C@@H]3CCc4cc(O)ccc4[C@H]3CC[C@@]21C", "experimental.result": -1.01}
{"molecule": "O=C1C(N(CO)C(=O)NCO)N(CO)C(=O)N1CO (configuration not stated)", "experimental.result": -0.26}

----------
# reported mean cell size; entries follow
Tested on: Saccharomyces cerevisiae BY4741 SeMeCo community
Assay: mean cell size (pixel area) (pixels); higher = larger cells
Details: 10 µM; 24 h; SM minimal medium
Where a name gives a salt, the structure may show the parent alone.
parameter.measured: mean cell size

{"compound": "CO/N=C(\\C(=O)N[C@@H]1C(=O)N2C(C(=O)O)=C(COC(C)=O)CS[C@H]12)c1csc(N)n1 [Cefotaxime sodium]", "experimental.result": 12.4}
{"compound": "CC1=C(C(=O)O)N2C(=O)[C@@H](NC(=O)[C@H](N)c3ccccc3)[C@H]2SC1", "experimental.result": 12}
{"compound": "C[C@@H]1NC(=O)[C@@H](N)CNC(=O)[C@H](C2CCNC(=N)N2)NC(=O)/C(=C/NC(N)=O)NC(=O)[C@H](CNC(=O)CC(N)CCCN)NC1=O.N=C1NCC[C@H]([C@@H]2NC(=O)/C(=C/NC(N)=O)NC(=O)[C@H](CNC(=O)C[C@@H](N)CCCN)NC(=O)[C@H](CO)NC(=O)[C@@H](N)CNC2=O)N1 [Capreomycin Sulfate]", "experimental.result": 12.1}
{"compound": "O=c1[nH]c2ccccc2n1CCN1CCN(c2cccc(C(F)(F)F)c2)CC1", "experimental.result": 12.3}
{"compound": "COc1cccc2c1C(=O)c1c(O)c3c(c(O)c1C2=O)C[C@@](O)(C(=O)CO)C[C@@H]3O[C@H]1C[C@H](N)[C@@H](O)[C@H](C)O1 [Epirubicin HCl]", "experimental.result": 12.6}

----------
Test system: Saccharomyces cerevisiae BY4741 SeMeCo community
Experiment: z-score of subpopulation abundance vs DMSO median, subpopulation auxotrophic for UM; higher = larger share of this subpopulation than in DMSO controls
Settings: 10 µM; 24 h; SM minimal medium; subpopulation (auxotrophy): UM
Where a name gives a salt, the structure may show the parent alone.
parameter.measured: z-score of subpopulation abundance

{"compound": "Cc1nc2n(c(=O)c1CCN1CCC(c3noc4cc(F)ccc34)CC1)CCCC2O (stereo unspecified) [Paliperidone]", "parameter.measured": "z-score of subpopulation abundance", "experimental.result": 0.49}
{"compound": "CC1(C)S[C@@H]2[C@H](NC(=O)[C@H](C(=O)O)c3ccsc3)C(=O)N2[C@H]1C(=O)O [Ticarcillin sodium]", "parameter.measured": "z-score of subpopulation abundance", "experimental.result": -0.45}
{"compound": "O=c1cc(-c2ccc(O)c(O)c2)oc2cc(O)cc(O)c12 [Luteolin]", "parameter.measured": "z-score of subpopulation abundance", "experimental.result": -0.52}
{"compound": "COc1cccc2c1C(=O)c1c(O)c3c(c(O)c1C2=O)CC(O)(C(=O)CO)CC3OC1CC(N)C(O)C(C)O1 (stereo unspecified) [Doxorubicin (Adriamycin) HCl]", "parameter.measured": "z-score of subpopulation abundance", "experimental.result": 0.38}
{"compound": "O=c1[nH]cnc2c1ncn2[C@@H]1O[C@H](CO)[C@@H](O)[C@H]1O [Isoprinosine]", "parameter.measured": "z-score of subpopulation abundance", "experimental.result": -0.74}
{"compound": "CS(=O)(=O)Nc1ccc([N+](=O)[O-])cc1Oc1ccccc1 [Nimesulide]", "parameter.measured": "z-score of subpopulation abundance", "experimental.result": -0.24}
{"compound": "NCCc1ccc(O)c(O)c1 [Dopamine HCl]", "parameter.measured": "z-score of subpopulation abundance", "experimental.result": -0.71}
{"compound": "CCCCCc1ccc(C)cc1O [Amylmetacresol]", "parameter.measured": "z-score of subpopulation abundance", "experimental.result": -0.13}
{"compound": "Oc1ccc(Cl)c2cccnc12 [Cloxiquine]", "parameter.measured": "z-score of subpopulation abundance", "experimental.result": 6.45}
{"compound": "CN(C)c1ccc(O)c2c1C[C@H]1C[C@H]3[C@H](N(C)C)C(=O)C(C(N)=O)=C(O)[C@@]3(O)C(=O)C1=C2O [Minocycline HCl]", "parameter.measured": "z-score of subpopulation abundance", "experimental.result": 0.25}
{"compound": "CCCc1nn(C)c2c(=O)[nH]c(-c3cc(S(=O)(=O)N4CCN(C)CC4)ccc3OCC)nc12 [Sildenafil]", "parameter.measured": "z-score of subpopulation abundance", "experimental.result": -0.73}
{"compound": "C[N+](C)(C)CCO.[Cl-] [Choline Chloride]", "parameter.measured": "z-score of subpopulation abundance", "experimental.result": 0.32}
{"compound": "C[C@@H]1[C@H](O)[C@@H](C)/C=C/C=C/C=C/C=C/C=C/C=C/C=C/[C@H](O[C@@H]2O[C@H](C)[C@@H](O)[C@H](N)[C@@H]2O)C[C@@H]2O[C@](O)(C[C@@H](O)C[C@@H](O)[C@H](O)CC[C@@H](O)C[C@@H](O)CC(=O)O[C@H]1C)C[C@H](O)[C@H]2C(=O)O [Amphotericin B]", "parameter.measured": "z-score of subpopulation abundance", "experimental.result": 29.4}
{"compound": "CN1CCC(=C2c3ccccc3C=Cc3ccccc32)CC1 [Cyproheptadine hydrochloride]", "parameter.measured": "z-score of subpopulation abundance", "experimental.result": -0.25}
{"compound": "CNCCC(Oc1ccc(C(F)(F)F)cc1)c1ccccc1 (stereo unspecified) [Fluoxetine HCl]", "parameter.measured": "z-score of subpopulation abundance", "experimental.result": 0.29}
{"compound": "C[C@@H](c1nc(-c2ccc(C#N)cc2)cs1)[C@](O)(Cn1cncn1)c1cc(F)ccc1F [Isavuconazole]", "parameter.measured": "z-score of subpopulation abundance", "experimental.result": 13.4}

----------
System: Saccharomyces cerevisiae BY4741 SeMeCo community
Experiment: z-score of subpopulation abundance vs DMSO median, subpopulation auxotrophic for HLM; higher = larger share of this subpopulation than in DMSO controls
Settings: 10 µM; 24 h; SM minimal medium; subpopulation (auxotrophy): HLM
Structures can show the parent of a compound that is named as a salt.

{"compound": "COc1cccc(CCc2ccccc2OCC(CN(C)C)OC(=O)CCC(=O)O)c1 (stereo not drawn) [Sarpogrelate hydrochloride]", "tested.on": "Saccharomyces cerevisiae BY4741 SeMeCo community", "z-score of subpopulation abundance": -0.89}
{"compound": "COC(=O)Nc1nc2cc(Sc3ccccc3)ccc2[nH]1", "tested.on": "Saccharomyces cerevisiae BY4741 SeMeCo community", "z-score of subpopulation abundance": -0.31}
{"compound": "CO/N=C(\\C(=O)N[C@@H]1C(=O)N2C(C(=O)[O-])=C(C[n+]3cccc4c3CCC4)CS[C@H]12)c1csc(N)n1 [Cefpirome sulfate]", "tested.on": "Saccharomyces cerevisiae BY4741 SeMeCo community", "z-score of subpopulation abundance": -0.14}
{"compound": "O=C(Cn1cnnn1)N[C@@H]1C(=O)N2C(C(=O)O)=C(CSc3nncs3)CS[C@H]12 [Ceftezole sodium]", "tested.on": "Saccharomyces cerevisiae BY4741 SeMeCo community", "z-score of subpopulation abundance": 0.32}
{"compound": "CNCCCC1c2ccccc2C=Cc2ccccc21 [Protriptyline hydrochloride]", "tested.on": "Saccharomyces cerevisiae BY4741 SeMeCo community", "z-score of subpopulation abundance": -0.07}
{"compound": "Clc1ccc(COC(Cn2ccnc2)c2ccc(Cl)cc2Cl)cc1 (stereo not drawn) [Econazole]", "tested.on": "Saccharomyces cerevisiae BY4741 SeMeCo community", "z-score of subpopulation abundance": 17.3}
{"compound": "CCOC(=O)C1=C(COCCN)NC(C)=C(C(=O)OC)C1c1ccccc1Cl (stereo not drawn)", "tested.on": "Saccharomyces cerevisiae BY4741 SeMeCo community", "z-score of subpopulation abundance": 9.49}
{"compound": "O=C1CN(/N=C/c2ccc(-c3ccc([N+](=O)[O-])cc3)o2)C(=O)N1 [Dantrolene sodium hemiheptahydrate]", "tested.on": "Saccharomyces cerevisiae BY4741 SeMeCo community", "z-score of subpopulation abundance": 2.77}
